Source: patent US10227357B2

Please provide measured IC50 for the entries that follow.
- tested system: c-kit kinase (Homo sapiens)
- Construct: The c-kit (or kinase domain thereof) is an active kinase in AlphaScreen; poly-Histidine tag (in-house protein only) (cleaved yes); host or cells: E. coli BL21(DE3)RIL, co-expressed with PTP1B
- experiment description: c-Kit biochemical assay, AlphaScreen, 10 μM ATP
- run parameters: c-kit biochemical inhibitory activity; read-out: Biochemical activity (IC50 μM) Kit

Check the records and state IC50 for `Cc1cc2c(N3CCN(C(=O)N[C@@H](C)c4cccc(OC(F)F)c4)[C@H](C)C3)ncnc2[nH]1`
10 to 200 µM

Check the records and state IC50 for `Cc1cc2c(-c3ccc(NS(=O)(=O)c4ccc(C(F)(F)F)cc4)cc3)ncnc2[nH]1`
10 to 200 µM

Check the records and state IC50 for `C[C@H](NC(=O)N1CCN(c2ncnc3[nH]c(-c4cnn(C)c4)cc23)CC1)c1ccc(F)cc1`
1 to 10 µM

Check the records and state IC50 for Cc1ccc(S(=O)(=O)NC2CCN(c3ncnc4[nH]c(-c5cnn(C)c5)cc34)CC2C)cc1 (stereo not drawn)
0.0001 to 1 µM

Check the records and state IC50 for `O=C(NCc1ccc(F)cc1)N1CCN(c2ncnc3cc(C4=CCNCC4)sc23)CC1`
1 to 10 µM

Check the records and state IC50 for `O=S(=O)(Nc1ccc(-c2ncnc3[nH]c(-c4cc(F)ccc4F)cc23)c(F)c1)C1CC1`
10 to 200 µM

Check the records and state IC50 for `Cc1cc2c(N3CCN(C(=O)N[C@@H](C)c4cccc(F)c4)[C@H](C)C3)ncnc2[nH]1`
10 to 200 µM

Check the records and state IC50 for `C[C@H]1CN(c2ncnc3[nH]c(-c4ccncc4)cc23)CCN1C(=O)Nc1ccc(Cl)cc1`
1 to 10 µM

Check the records and state IC50 for `CCc1ccc(S(=O)(=O)NC2CCN(c3ncnc4[nH]c(-c5ccnc(OC)c5)cc34)CC2)cc1`
0.0001 to 1 µM

Check the records and state IC50 for `Cc1ccc(S(=O)(=O)NC2CCN(c3ncnc4[nH]c(C)cc34)CC2)cc1`
10 to 200 µM

Check the records and state IC50 for `Cc1n[nH]c2ncnc(-c3ccc(NS(=O)(=O)c4cccc(Cl)c4)cc3)c12`
1 to 10 µM

Check the records and state IC50 for `C[C@H](NC(=O)N1CCN(c2ncnc3[nH]c(-c4ccc(F)cc4)cc23)CC1)c1cccc(OC(F)F)c1`
1 to 10 µM

Check the records and state IC50 for `C[C@H](NC(=O)N1CCN(c2ncnc3[nH]c(-c4ccc(Cl)cc4)cc23)C[C@H]1C)c1ccc(Cl)cc1`
1 to 10 µM

Check the records and state IC50 for `C[C@@H]1CN(c2ncnc3[nH]c(-c4ccncc4)cc23)CCN1C(=O)Nc1ccc(OC(F)(F)F)cc1`
0.0001 to 1 µM

Check the records and state IC50 for `O=S(=O)(Nc1ccc(-c2ncnc3[nH]c(-c4ccc(F)cc4F)cc23)c(F)c1)C1CC1`
10 to 200 µM

Check the records and state IC50 for `NC(=O)N1CCN(c2ncnc3[nH]c(-c4cccnc4)cc23)CC1`
10 to 200 µM

Check the records and state IC50 for `Cc1ccc(S(=O)(=O)Nc2ccc(-c3ncnc4[nH]c(C)cc34)cc2)cn1`
1 to 10 µM

Check the records and state IC50 for `O=C(Nc1ccc(OC(F)(F)F)cc1)N1CCN(c2ncnc3[nH]c(-c4cnc(C5CC5)nc4)cc23)CC1`
1 to 10 µM

Check the records and state IC50 for `O=C(NCc1ccccc1Cl)N1CCN(c2ncnc3[nH]c(-c4ccc(F)cc4)cc23)CC1`
10 to 200 µM

Check the records and state IC50 for `Cc1cc2c(N3CCN(C(=O)N[C@@H](C)c4ccc(F)cc4)C(C)(C)C3)ncnc2[nH]1`
10 to 200 µM

Check the records and state IC50 for `CCCS(=O)(=O)Nc1ccc(-c2ncnc3[nH]c(C)cc23)cc1`
10 to 200 µM

Check the records and state IC50 for `Cc1nn(C)cc1-c1cc2ncnc(N3CCN(C(=O)N[C@@H](C)c4ccc(F)cc4)[C@H](C)C3)c2s1`
10 to 200 µM

Check the records and state IC50 for `Cc1nn(C)cc1-c1cc2ncnc(N3CCN(C(=O)N[C@@H](C)c4cccc(OC(F)F)c4)[C@H](C)C3)c2s1`
10 to 200 µM

Check the records and state IC50 for `COc1cccc([C@H](C)NC(=O)N2CCN(c3ncnc4[nH]c(C)cc34)CC2)c1`
10 to 200 µM

Check the records and state IC50 for `COc1cccc([C@H](C)NC(=O)N2CCN(c3ncnc4cc(-c5cn(C)nc5C)sc34)C[C@H]2C)c1`
1 to 10 µM

Check the records and state IC50 for `Cc1cc2c(-c3ccc(NS(=O)(=O)c4cc(F)ccc4F)cc3F)ncnc2[nH]1`
1 to 10 µM

Check the records and state IC50 for `COc1cc2ncnc(-c3ccc(N)c(F)c3)c2cc1OC`
1 to 10 µM

Check the records and state IC50 for `O=C(NC1CCCCC1)N1CCN(c2ncnc3[nH]ccc23)CC1`
10 to 200 µM

Check the records and state IC50 for `C[C@@H]1CN(c2ncnc3[nH]c(-c4ccc(F)cc4)cc23)CCN1C(=O)N[C@H](C)c1ccc(Cl)cc1`
10 to 200 µM

Check the records and state IC50 for `COc1cc2c(-c3ccc(NS(=O)(=O)C4CC4)cc3F)ncnc2cc1OCCCN1CCCCC1`
1 to 10 µM

Check the records and state IC50 for `O=C(NCc1ccc(F)cc1)N1CCN(c2ncnc3[nH]c(-c4ccccc4)cc23)CC1`
0.0001 to 1 µM

Check the records and state IC50 for `C[C@H](NC(=O)N1CCN(c2ncnc3[nH]c(-c4cnn(C)c4)cc23)C[C@H]1C)c1ccc(Cl)cc1`
1 to 10 µM

Check the records and state IC50 for `CC1(C)C=C(c2cc3c(-c4ccc(NS(=O)(=O)c5ccc(F)cc5)cc4)ncnc3[nH]2)CC(C)(C)N1`
1 to 10 µM

* * *

- tested system: c-kit kinase (Homo sapiens, UniProt P10721)
- Construct: The c-kit (or kinase domain thereof) is an active kinase in AlphaScreen; poly-Histidine tag (in-house protein only) (cleaved yes); host or cells: E. coli BL21(DE3)RIL, co-expressed with PTP1B
- Sequence (P10721 26-976): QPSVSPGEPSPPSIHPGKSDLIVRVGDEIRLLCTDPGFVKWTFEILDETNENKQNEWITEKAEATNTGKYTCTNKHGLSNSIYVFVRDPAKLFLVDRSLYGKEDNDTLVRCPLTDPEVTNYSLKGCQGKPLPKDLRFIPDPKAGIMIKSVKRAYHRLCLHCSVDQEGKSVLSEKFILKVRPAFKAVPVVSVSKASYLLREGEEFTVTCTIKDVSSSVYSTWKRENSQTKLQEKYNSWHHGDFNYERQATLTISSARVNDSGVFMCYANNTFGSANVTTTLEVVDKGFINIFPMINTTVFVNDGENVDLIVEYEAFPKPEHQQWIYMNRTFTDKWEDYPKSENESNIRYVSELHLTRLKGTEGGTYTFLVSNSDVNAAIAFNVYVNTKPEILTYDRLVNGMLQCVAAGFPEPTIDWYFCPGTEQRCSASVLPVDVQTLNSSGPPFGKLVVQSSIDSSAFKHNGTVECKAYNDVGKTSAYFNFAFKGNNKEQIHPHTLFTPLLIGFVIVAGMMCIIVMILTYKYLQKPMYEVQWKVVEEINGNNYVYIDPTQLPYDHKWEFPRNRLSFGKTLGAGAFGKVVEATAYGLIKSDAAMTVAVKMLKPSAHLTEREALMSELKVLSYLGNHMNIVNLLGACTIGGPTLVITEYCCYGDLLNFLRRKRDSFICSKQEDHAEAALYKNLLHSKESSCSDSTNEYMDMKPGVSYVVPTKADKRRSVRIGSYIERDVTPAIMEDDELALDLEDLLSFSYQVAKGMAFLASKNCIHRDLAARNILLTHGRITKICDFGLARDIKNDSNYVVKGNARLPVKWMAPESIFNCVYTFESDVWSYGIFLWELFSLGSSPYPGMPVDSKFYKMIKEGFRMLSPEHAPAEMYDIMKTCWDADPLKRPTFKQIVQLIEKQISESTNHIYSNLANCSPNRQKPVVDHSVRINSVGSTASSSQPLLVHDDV
- experiment description: c-Kit biochemical assay, AlphaScreen, 10 μM ATP
- run parameters: c-kit biochemical inhibitory activity; read-out: Biochemical activity (IC50 μM) Kit
measured parameter: IC50

Check the records and state IC50 for `Cn1cc(-c2cc3c(N4CCC(NS(=O)(=O)c5cc6ccccc6s5)CC4)ncnc3[nH]2)cn1`
0.0001 to 1 µM

Check the records and state IC50 for `N#Cc1cc2c(N3CCN(C(=O)NCc4ccc(F)cc4)CC3)ncnc2[nH]1`
10 to 200 µM

Check the records and state IC50 for `Cc1cc2c(N3CCN(C(=O)N[C@@H](C)c4cccc(Cl)c4)C(C)(C)C3)ncnc2[nH]1`
10 to 200 µM

Check the records and state IC50 for `O=C(N1CC=C(c2cc3ncnc(-c4ccc(NS(=O)(=O)c5ccc(F)cc5)cc4)c3s2)CC1)N1CCOCC1`
0.0001 to 1 µM

Check the records and state IC50 for `Cn1cc(-c2cc3c(N4CCC(NS(=O)(=O)c5cc(Cl)c(Cl)s5)CC4)ncnc3[nH]2)cn1`
1 to 10 µM

Check the records and state IC50 for `COc1cc2ncnc(-c3ccc(NS(=O)(=O)C4CC4)cc3F)c2cc1OC`
10 to 200 µM

Check the records and state IC50 for `O=C1CCCN1c1ccc(S(=O)(=O)NC2CCN(c3ncnc4[nH]c(-c5ccc(Cl)cc5)cc34)CC2)cc1`
10 to 200 µM

Check the records and state IC50 for `O=S(=O)(Nc1ccc(-c2ncnc3[nH]c(C4=CCCC4)cc23)cc1)c1ccc(F)cc1`
1 to 10 µM

Check the records and state IC50 for `CCc1ccc(S(=O)(=O)Nc2ccc(-c3ncnc4[nH]nc(C)c34)cc2)cc1`
1 to 10 µM

Check the records and state IC50 for `CCc1ccc(C(=O)NC2CCN(c3ncnc4[nH]ccc34)CC2)cc1`
10 to 200 µM

Check the records and state IC50 for `Cc1nn(C)cc1-c1cc2ncnc(C3=CCN(C(=O)Nc4ccc(Cl)cc4)CC3)c2s1`
0.0001 to 1 µM

Check the records and state IC50 for `O=C(Nc1cccc(Cl)c1)N1CCN(c2ncnc3[nH]ccc23)CC1`
10 to 200 µM

Check the records and state IC50 for `Cc1ccc(S(=O)(=O)Nc2ccc(-c3ncnc4cc(-c5cnn(C)c5)sc34)cc2)cc1`
0.0001 to 1 µM

Check the records and state IC50 for `Cc1cc2c(-c3ccc(NS(=O)(=O)c4ccc(OC(F)F)cc4)cc3F)ncnc2[nH]1`
1 to 10 µM

Check the records and state IC50 for `CC(C)(NC(=O)N1CC=C(c2ncnc3cc(-c4ccc(F)cc4)sc23)CC1)c1ccccc1`
1 to 10 µM

Check the records and state IC50 for `CS(=O)(=O)Nc1ccc(-c2ncnc3cc4c(cc23)OCCO4)c(F)c1`
1 to 10 µM

Check the records and state IC50 for `COc1cc(-c2cc3c(N4CCN(C(=O)NCc5ccc(F)cc5)CC4)ncnc3[nH]2)ccn1`
10 to 200 µM

Check the records and state IC50 for `C[C@H](NC(=O)N1CCN(c2ncnc3cc(C4=CCN(S(C)(=O)=O)CC4)sc23)CC1(C)C)c1cccc(Cl)c1`
1 to 10 µM

Check the records and state IC50 for `CCCCc1ccc(S(=O)(=O)Nc2ccc(-c3ncnc4[nH]c(C)cc34)cc2)cc1`
10 to 200 µM

Check the records and state IC50 for `CNS(=O)(=O)c1ccc(-c2ncnc3[nH]c(-c4ccc(F)cc4)cc23)cc1`
1 to 10 µM

Check the records and state IC50 for `C[C@H](NC(=O)N1CCN(c2ncnc3[nH]c(-c4cnn(C)c4)cc23)CC1(C)C)c1ccc(F)cc1`
0.0001 to 1 µM

Check the records and state IC50 for `O=S(=O)(NCC1CC1)c1ccc(-c2ncnc3[nH]c(-c4ccc(F)cc4)cc23)c(F)c1`
10 to 200 µM

Check the records and state IC50 for `Cc1cc2c(-c3ccc(NS(=O)(=O)c4ccc(Cl)cc4)c(F)c3)ncnc2[nH]1`
1 to 10 µM

Check the records and state IC50 for `COc1cc(-c2cc3c(N4CCN(C(=O)Nc5ccc(OC(F)(F)F)cc5)CC4)ncnc3[nH]2)ccn1`
0.0001 to 1 µM

Check the records and state IC50 for `CC(C)(C)OC(=O)N1CC=C(c2cc3ncnc(N4CCN(C(=O)NCc5ccc(F)cc5)CC4)c3s2)CC1`
1 to 10 µM

Check the records and state IC50 for `CCCCNS(=O)(=O)c1ccc(-c2ncnc3[nH]c(-c4ccc(F)cc4)cc23)cc1`
10 to 200 µM

Check the records and state IC50 for `COc1cccc([C@@H](C)NC(=O)N2CCN(c3ncnc4[nH]c(-c5ccc(F)cc5)cc34)C[C@H]2C)c1`
10 to 200 µM

Check the records and state IC50 for `O=C(NC(=O)c1ccccc1)NC1CCN(c2ncnc3[nH]ccc23)CC1`
10 to 200 µM

Check the records and state IC50 for `Cc1ccc(S(=O)(=O)Nc2ccc(-c3ncnc4[nH]c(C)cc34)c(F)c2)cn1`
1 to 10 µM

Check the records and state IC50 for `C[C@H](NC(=O)N1CCN(c2ncnc3cc(-c4ccc(F)cc4)sc23)CC1(C)C)c1ccc(Cl)cc1`
10 to 200 µM

Check the records and state IC50 for `Cc1ccc(S(=O)(=O)Nc2ccc(-c3ncnc4cc(C5=CCN(C(=O)C6CC6)CC5)sc34)cc2)cc1`
0.0001 to 1 µM

Check the records and state IC50 for `O=C(NCc1ccc(F)cc1)N1CCN(c2ncnc3cc(C4CCN(C(=O)C5CC5)CC4)sc23)CC1`
10 to 200 µM

Check the records and state IC50 for `C[C@H](NC(=O)N1CCN(c2ncnc3[nH]c(-c4ccc(F)cc4)cc23)CC1)c1ccc(Cl)cc1`
10 to 200 µM
